growth inhibition overview
assay: NCI Yeast Anticancer Drug Screen. Data for the rad50 strain (AID 155);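 further: 0% = growth of vehicle-only cultures of the same strain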; settings: S. cerevisiae rad50 strain growth inhibition; at 100.0 µM; active compounds read high
The panel holds about 79,000 compounds, 15% with a hit somewhere; the sample as a whole holds those more often. The source made the active and inactive calls. No stated cut-off is given here; in the data, active means growth inhibition above about 70%; inactive means the rest.

compound	growth inhibition
OC(CC(O)(C(F)(F)F)C(F)(F)F)c1ccc(C(O)CC(O)(C(F)(F)F)C(F)(F)F)cc1 (centres undefined)	92% (active)
COc1ccc(C2CC(C)(N3CCCC3)Oc3cc4c(cc32)OCO4)cc1 (centres undefined)	92% (active)
Cc1ccc(NC(Nc2ccc(C)cc2C)=C(C(Cl)=C(Cl)Cl)[N+](=O)[O-])c(C)c1	92% (active)
COc1cc(C(=O)C=O)cc(OC)c1OC	91% (active)
